target: Receptor tyrosine-protein kinase erbB-4 (Homo sapiens) (UniProt Q15303); details: at 1 µM;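 also: each value is a mean percent inhibition of ERBB4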
Sequence (Q15303 whole entry): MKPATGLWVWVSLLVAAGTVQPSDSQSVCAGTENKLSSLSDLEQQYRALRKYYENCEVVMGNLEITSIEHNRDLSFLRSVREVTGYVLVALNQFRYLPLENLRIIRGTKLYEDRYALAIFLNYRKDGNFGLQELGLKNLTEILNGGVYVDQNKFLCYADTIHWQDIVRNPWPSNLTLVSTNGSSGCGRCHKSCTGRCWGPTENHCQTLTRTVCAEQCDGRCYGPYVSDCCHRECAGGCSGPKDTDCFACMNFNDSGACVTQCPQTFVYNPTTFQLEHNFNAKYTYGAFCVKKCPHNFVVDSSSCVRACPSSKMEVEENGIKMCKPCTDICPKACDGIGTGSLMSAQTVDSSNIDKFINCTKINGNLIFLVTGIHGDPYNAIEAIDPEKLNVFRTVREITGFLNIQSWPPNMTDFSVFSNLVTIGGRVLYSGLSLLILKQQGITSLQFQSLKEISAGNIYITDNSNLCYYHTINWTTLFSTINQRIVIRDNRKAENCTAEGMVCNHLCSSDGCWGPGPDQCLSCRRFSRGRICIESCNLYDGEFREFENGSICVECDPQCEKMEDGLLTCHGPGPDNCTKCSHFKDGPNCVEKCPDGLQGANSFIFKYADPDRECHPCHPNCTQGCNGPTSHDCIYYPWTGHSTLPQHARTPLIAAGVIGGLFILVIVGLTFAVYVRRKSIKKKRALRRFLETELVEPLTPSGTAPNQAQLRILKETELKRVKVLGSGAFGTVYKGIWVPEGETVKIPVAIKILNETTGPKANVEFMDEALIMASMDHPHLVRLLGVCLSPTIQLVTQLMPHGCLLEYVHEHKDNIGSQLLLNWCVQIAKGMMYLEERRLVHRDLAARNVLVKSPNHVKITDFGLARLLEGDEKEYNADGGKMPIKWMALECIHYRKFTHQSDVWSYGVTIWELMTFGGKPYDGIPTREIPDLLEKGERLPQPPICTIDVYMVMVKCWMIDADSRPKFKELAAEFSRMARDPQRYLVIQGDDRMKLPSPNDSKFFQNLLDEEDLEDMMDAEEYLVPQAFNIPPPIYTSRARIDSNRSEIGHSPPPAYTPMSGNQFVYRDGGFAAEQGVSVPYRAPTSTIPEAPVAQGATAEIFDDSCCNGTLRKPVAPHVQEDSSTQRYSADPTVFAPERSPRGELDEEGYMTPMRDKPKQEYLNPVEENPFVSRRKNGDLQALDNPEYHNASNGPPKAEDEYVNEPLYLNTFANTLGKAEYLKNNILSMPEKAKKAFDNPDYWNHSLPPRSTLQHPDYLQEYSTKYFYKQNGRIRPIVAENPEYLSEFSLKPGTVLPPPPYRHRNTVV
Parameter Measured: inhibition

Would you mind telling me what inhibition value was observed for CCCN1CCC=C(c2ccc(Nc3nc(Nc4ccccc4C(N)=O)c4cc[nH]c4n3)c(C)c2)C1 ? 27.7%

What do we get for CC(=O)Nc1cccc(C#Cc2cncnc2Nc2ccc(OCc3cccc(F)c3)c(Cl)c2)n1 ? 62.8%

Entry CCc1cccc(NC(=O)Nc2ccc(Oc3ccc4nc(NC(=O)OC)[nH]c4c3)cc2)c1 please 15.3%

Please answer likewise for Cc1nnc(-c2ccc(C)c(-c3ccc(C(=O)Nc4cccc(C#N)c4)cc3)c2)o1 16.2%

Further, for COc1cc2ncn(-c3cc(OCc4ccccc4C(F)(F)F)c(C(N)=O)s3)c2cc1OC ? 11.8%

Same for [O-][S+]1CCN(Cc2ccc(-c3ccc4ncnc(Nc5ccc(OCc6ccccc6)c(F)c5)c4c3)o2)CC1 88.7%

Please answer likewise for Cc1cccc(-c2n[nH]cc2-c2ccc3ncccc3n2)n1 4%

CN1CCC(C(=O)Nc2n[nH]c3nnc(-c4ccccc4)cc23)CC1 , same question. 24.2%

Would you kindly repeat that for NC(=O)c1cccc(Nc2nccc(Nc3cccc4[nH]ncc34)n2)c1 ? -1.88%

Same read-out for CCn1c(-c2nonc2N)nc2c(C#CC(C)(C)O)nc(OC[C@@H](N)c3ccccc3)cc21 ? -4.06%

Request: O=C1NC(=O)C(N2CCc3ccccc32)=C1c1ccc(Cl)cc1 24%

Do the same for O=C(Nc1n[nH]c2nc(-c3ccco3)c(Br)cc12)C1CC1 please 15.8%

Try CNC(=O)c1cncc(/C=C/c2c(Cl)cccc2Cl)c1 next. 8.83%

And then COc1cc(C)c(NC(=O)CN(C)C)cc1Nc1nc(Nc2cccc(F)c2C(N)=O)c2cc[nH]c2n1 , what is it? 32.1%

// repeat for Fc1cccc(COc2ccc(Nc3ncnc4cc(-c5ccc[nH]5)sc34)cc2Cl)c1 and report 68.5%

And then CCn1c(-c2nonc2N)nc2cnc(Oc3cccc(NC(=O)c4ccc(OCCN5CCOCC5)cc4)c3)cc21 , what is it? 10.4%

Another compound to check: CCn1c(-c2nonc2N)nc2cncc(C(=O)N3CC[C@H](N)C3)c21 17.8%

Then CS(=O)(=O)CCN(CC#N)Cc1ccc(-c2ccc3ncnc(Nc4ccc(OCc5cccc(F)c5)c(Cl)c4)c3c2)o1 ? 73.8%

Try COc1ccc(-c2coc3ncnc(N)c23)cc1 next. 15.5%

Try CCn1c(-c2nonc2N)nc2ccncc21 next. 9.71%
